Reported pEC50 by item:
target: T1, human ROR1 (full-length, on the cell surface) (human, UniProt Q01973 30-937); assay: flow cytometry, A549 cells
T1 construct: whole, on cells; the tumour cell lines carry their own ROR1; also called Ba/F3-ROR1 cells; Jeko-1
T1 sequence (Q01973 30-937): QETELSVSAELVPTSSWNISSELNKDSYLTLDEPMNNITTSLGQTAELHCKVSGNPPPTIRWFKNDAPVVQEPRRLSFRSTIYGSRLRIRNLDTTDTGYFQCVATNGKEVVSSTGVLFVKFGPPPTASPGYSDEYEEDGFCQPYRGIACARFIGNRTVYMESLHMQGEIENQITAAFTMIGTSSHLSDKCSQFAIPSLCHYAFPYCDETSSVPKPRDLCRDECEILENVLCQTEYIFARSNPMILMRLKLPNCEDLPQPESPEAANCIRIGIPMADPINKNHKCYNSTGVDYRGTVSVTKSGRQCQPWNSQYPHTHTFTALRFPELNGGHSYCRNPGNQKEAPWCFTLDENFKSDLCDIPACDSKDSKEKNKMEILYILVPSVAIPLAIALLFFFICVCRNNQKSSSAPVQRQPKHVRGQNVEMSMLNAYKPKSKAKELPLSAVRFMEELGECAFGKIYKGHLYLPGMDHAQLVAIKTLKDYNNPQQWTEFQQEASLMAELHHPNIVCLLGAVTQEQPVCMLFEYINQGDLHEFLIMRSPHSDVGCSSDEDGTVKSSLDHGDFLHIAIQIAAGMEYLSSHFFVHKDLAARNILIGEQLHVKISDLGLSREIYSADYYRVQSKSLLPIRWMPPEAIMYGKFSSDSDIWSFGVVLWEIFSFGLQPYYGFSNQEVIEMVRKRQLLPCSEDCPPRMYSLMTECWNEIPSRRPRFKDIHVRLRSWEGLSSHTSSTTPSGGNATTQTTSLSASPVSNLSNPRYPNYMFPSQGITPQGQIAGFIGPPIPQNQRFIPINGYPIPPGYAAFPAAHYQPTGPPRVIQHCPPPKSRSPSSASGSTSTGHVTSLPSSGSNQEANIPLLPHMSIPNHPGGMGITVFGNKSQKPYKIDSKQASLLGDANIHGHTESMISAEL
pEC50: −log10 of the molar value.

BINDER	pEC50
38F8-Hu27 (antibody, human IgG1, kappa, V domains shown, humanized, human IgG1 / kappa) VH: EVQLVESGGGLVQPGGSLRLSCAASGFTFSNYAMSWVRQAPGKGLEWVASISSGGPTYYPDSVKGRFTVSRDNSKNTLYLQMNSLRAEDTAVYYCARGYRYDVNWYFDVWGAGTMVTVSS VL: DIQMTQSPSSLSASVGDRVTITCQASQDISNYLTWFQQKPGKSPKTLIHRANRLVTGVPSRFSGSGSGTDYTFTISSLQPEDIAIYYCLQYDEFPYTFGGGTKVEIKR	9.57
19F6-Hu21 (antibody, human IgG1, kappa, V domains shown, humanized, human IgG1 / kappa) VH: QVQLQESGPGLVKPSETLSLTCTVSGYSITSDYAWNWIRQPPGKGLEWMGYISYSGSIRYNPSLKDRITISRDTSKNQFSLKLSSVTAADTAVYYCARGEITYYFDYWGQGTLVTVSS VL: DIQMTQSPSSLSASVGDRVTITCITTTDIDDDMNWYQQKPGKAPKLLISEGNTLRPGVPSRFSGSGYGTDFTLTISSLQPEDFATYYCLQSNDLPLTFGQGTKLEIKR	9.51
3D8-Hu25 (antibody, human IgG1, kappa, V domains shown, humanized, human IgG1 / kappa) VH: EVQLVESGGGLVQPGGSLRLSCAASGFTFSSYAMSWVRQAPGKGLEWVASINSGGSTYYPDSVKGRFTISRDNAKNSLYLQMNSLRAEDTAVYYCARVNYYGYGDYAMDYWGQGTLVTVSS VL: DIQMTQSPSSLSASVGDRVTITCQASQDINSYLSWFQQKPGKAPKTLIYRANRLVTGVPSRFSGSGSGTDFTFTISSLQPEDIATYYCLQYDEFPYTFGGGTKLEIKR	9.66

Measured values drawn from patent US20240018237A1 for this set.
